Sourced from ChEMBL document CHEMBL1140669

# Assay Remarks: Aqueous solubility at pH 7
# Type: physicochemical
Property: solubility

# input Endpoint output: solubility of C[N+](C)(Cc1ccc(NC(=O)c2ccc(Cl)c(Cl)c2)cc1)C1CCOCC1 [JNJ-17166864 CATION] . Value?
# output > 7000 µg/mL

----------
# Assay Remarks: Aqueous solubility at pH 2
# Format: physicochemical
Property: solubility

# input Endpoint output: solubility of C[N+](C)(Cc1ccc(NC(=O)c2ccc(Cl)c(Cl)c2)cc1)C1CCOCC1 [JNJ-17166864 CATION] . Value?
# output > 7000 µg/mL

----------
# Assay Remarks: […] bioavailability in sc dosed rat
# Assay type: ADME, organism-based
# Condition Summary: in vivo, subcutaneous
Property: bioavailability (%)
# number only, unit % dropped from output

# input Endpoint output: bioavailability of "C[N+](C)(Cc1ccc(NC(=O)c2ccc(Cl)c(Cl)c2)cc1)C1CCOCC1" . Value?
# output 100
